B1: POMT2 (parent)
chain: VLRSRIRFIHLVTGCVLGSSGKVL

variants of: B1; experiment: protein stability index of a GFP-peptide fusion (GPS, HEK-293T) (PSI 1-6); higher = more stable; settings: c terminus: a fixed tail appended;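 also: lentivirally expressed fusions sorted by FACS into six bins by GFP to DsRed ratio, PSI derived from sequencing read proportions per bin multiplied by bin number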
Lab note: compare protein stability index against 3. Equal or greater, write MET. Smaller, write NOT MET.

Sequence Data: VLRSRHRFIHLVTGCVLGSSGKVL
Category Label: NOT MET
--
Sequence Data: VLRSRIRFIHLVTGCLLGSSGKVL
Category Label: MET
--
Sequence Data: VLRSRIRFIHLVTGVVLGSSGKVL
Category Label: MET
--
Sequence Data: VLRSRIRFIHLVTGCGLGSSGKVL
Category Label: NOT MET
--
Sequence Data: VLRSRPRFIHLVTGCVLGSSGKVL
Category Label: MET
--
Sequence Data: VLRSRIRFIHLVTGCVLGSSLKVL
Category Label: MET
--
Sequence Data: VLRSRIRFIHLVGGCVLGSSGKVL
Category Label: NOT MET
--
Sequence Data: VLRSRIRFIHLVTGCVLGSSGKCL
Category Label: NOT MET
--
Sequence Data: VLRSRIRFIHLVTGCVLGSSGDVL
Category Label: MET
--
Sequence Data: VLRSRIVFIHLVTGCVLGSSGKVL
Category Label: NOT MET
--
Sequence Data: VLRSRIRFIHLVTGCVLGSSIKVL
Category Label: NOT MET
--
Sequence Data: VLRSRIRFIHLVTGCVLGSSGKYL
Category Label: NOT MET
--
Sequence Data: VLRSRIRNIHLVTGCVLGSSGKVL
Category Label: NOT MET
--
Sequence Data: VLRSRIRFIHLTTGCVLGSSGKVL
Category Label: MET
--
Sequence Data: VLRSRIRTIHLVTGCVLGSSGKVL
Category Label: NOT MET
--
Sequence Data: VLYSRIRFIHLVTGCVLGSSGKVL
Category Label: NOT MET
--
Sequence Data: VLRSRIRFIHLVTGCVLGSSGKVS
Category Label: NOT MET
--
Sequence Data: VLRSRIRFIHLVTGCVWGSSGKVL
Category Label: MET
--
Sequence Data: VLRSRIRFIHLVTGCVLGSSGKVI
Category Label: MET
--
Sequence Data: VLRSRIRFIHLVTGCVQGSSGKVL
Category Label: NOT MET
--
Sequence Data: VLRSRIRFIHLVTGCVLGSSGKVG
Category Label: MET
--
Sequence Data: VLRSRIRFIILVTGCVLGSSGKVL
Category Label: MET
--
Sequence Data: LLRSRIRFIHLVTGCVLGSSGKVL
Category Label: NOT MET
--
Sequence Data: VLRSRIRFIHLVTGCVLGSEGKVL
Category Label: NOT MET
--
Sequence Data: VLRSRIRFIHLVTGCVLGSAGKVL
Category Label: MET
--
Sequence Data: VVRSRIRFIHLVTGCVLGSSGKVL
Category Label: NOT MET
--
Sequence Data: VLRSRIRFIHLVTGCVSGSSGKVL
Category Label: NOT MET
--
Sequence Data: VLRSRIRFIHLVTGCVLGLSGKVL
Category Label: NOT MET
--
Sequence Data: VLRSIIRFIHLVTGCVLGSSGKVL
Category Label: NOT MET
--
Sequence Data: VLRSRIRFAHLVTGCVLGSSGKVL
Category Label: MET
--
Sequence Data: VLRSRIRFIHLVTDCVLGSSGKVL
Category Label: NOT MET
--
Sequence Data: VLRSRIRFIHLVTGPVLGSSGKVL
Category Label: NOT MET
--
Sequence Data: VLRSRIRFIHLVTGCVIGSSGKVL
Category Label: NOT MET
--
Sequence Data: VLRSRIRHIHLVTGCVLGSSGKVL
Category Label: NOT MET
--
Sequence Data: VLRSRIRFIHLVTGCVLGSSEKVL
Category Label: MET
--
Sequence Data: VLRSRIRFIFLVTGCVLGSSGKVL
Category Label: MET
--
Sequence Data: VLRSRIRVIHLVTGCVLGSSGKVL
Category Label: NOT MET
--
Sequence Data: VLRSRIRFVHLVTGCVLGSSGKVL
Category Label: NOT MET
--
Sequence Data: VLRSRIRFIHLVTGCVLGSSGAVL
Category Label: NOT MET
--
Sequence Data: VLRSRIRSIHLVTGCVLGSSGKVL
Category Label: NOT MET
--
Sequence Data: VLRSRIRFIHLCTGCVLGSSGKVL
Category Label: NOT MET
--
Sequence Data: VLRSRIRFIHLHTGCVLGSSGKVL
Category Label: NOT MET
--
Sequence Data: VLRSRIRFIHLVTGCDLGSSGKVL
Category Label: NOT MET
--
Sequence Data: VLRSRIRFIHLVTGCVLGSSGKPL
Category Label: MET
--
Sequence Data: VHRSRIRFIHLVTGCVLGSSGKVL
Category Label: NOT MET
--
Sequence Data: VLRSRIRFIHLVTGCVLGSVGKVL
Category Label: NOT MET
--
Sequence Data: VLRSRIRFIHLVTGCVFGSSGKVL
Category Label: NOT MET
--
Sequence Data: VLRSRDRFIHLVTGCVLGSSGKVL
Category Label: NOT MET
--
Sequence Data: VLRSRIRFIHLVFGCVLGSSGKVL
Category Label: NOT MET
--
Sequence Data: VLRSRIRFIHLVYGCVLGSSGKVL
Category Label: MET
--
Sequence Data: VLRSRIRFIHLVLGCVLGSSGKVL
Category Label: MET
--
Sequence Data: VLRSRIWFIHLVTGCVLGSSGKVL
Category Label: NOT MET
--
Sequence Data: VLRSRIRFIYLVTGCVLGSSGKVL
Category Label: NOT MET
--
Sequence Data: VLVSRIRFIHLVTGCVLGSSGKVL
Category Label: NOT MET
--
Sequence Data: VLNSRIRFIHLVTGCVLGSSGKVL
Category Label: NOT MET
--
Sequence Data: VLRSRIRFIHLVTGCVLGMSGKVL
Category Label: MET
--
Sequence Data: VLRSRIRFIHLVTGCVLGSSGWVL
Category Label: MET
--
Sequence Data: VLRSRIRFIHLVTGCVLGSSFKVL
Category Label: NOT MET
--
Sequence Data: VLRSRIRIIHLVTGCVLGSSGKVL
Category Label: MET
--
Sequence Data: VLRSRIRFIHLVTGCYLGSSGKVL
Category Label: MET
--
Sequence Data: VLRSRIRFIHLVTGCVLGSGGKVL
Category Label: NOT MET
--
Sequence Data: DLRSRIRFIHLVTGCVLGSSGKVL
Category Label: NOT MET
--
Sequence Data: VLRSRIRFIHLRTGCVLGSSGKVL
Category Label: NOT MET
--
Sequence Data: VLRSRIRFIHLVTGCVLGVSGKVL
Category Label: NOT MET
--
Sequence Data: VLRSRIRFIHLVTWCVLGSSGKVL
Category Label: NOT MET
--
Sequence Data: VLRSRIRFIHLITGCVLGSSGKVL
Category Label: NOT MET
--
Sequence Data: VLRSRIRFIHLVTGCVLGKSGKVL
Category Label: NOT MET
--
Sequence Data: VLRSRIRFIHLVVGCVLGSSGKVL
Category Label: MET
--
Sequence Data: VLRRRIRFIHLVTGCVLGSSGKVL
Category Label: NOT MET
--
Sequence Data: VLRSRIRFIHLVTGCVLGSDGKVL
Category Label: NOT MET
--
Sequence Data: VLRSRSRFIHLVTGCVLGSSGKVL
Category Label: NOT MET
--
Sequence Data: VLRSRIRFIHLVTRCVLGSSGKVL
Category Label: NOT MET
--
Sequence Data: VLRSRIRFIHLVTGYVLGSSGKVL
Category Label: MET
--
Sequence Data: VLRSRIRFIHRVTGCVLGSSGKVL
Category Label: NOT MET
--
Sequence Data: VLRSRIRFIHLVTGEVLGSSGKVL
Category Label: MET
--
Sequence Data: VLRSRIRFIHLVQGCVLGSSGKVL
Category Label: NOT MET
--
Sequence Data: ILRSRIRFIHLVTGCVLGSSGKVL
Category Label: NOT MET
--
Sequence Data: VLRSRIRFIHLVTGCVLGSHGKVL
Category Label: NOT MET
--
Sequence Data: GLRSRIRFIHLVTGCVLGSSGKVL
Category Label: NOT MET
--
Sequence Data: VLCSRIRFIHLVTGCVLGSSGKVL
Category Label: NOT MET
--
Sequence Data: VLRSRIRFIHLVTGRVLGSSGKVL
Category Label: NOT MET
--
Sequence Data: VLRSRIRFRHLVTGCVLGSSGKVL
Category Label: NOT MET
